Here, each record is paired with measured Ratio data.
target: IL-6R-Fc 항원 (human) (UniProt P08887); test: mono phage ELISA; ratio of the IL-6R full signal to the a-myc signal
Enter a number only.

{"binder": "모노 파아지 클론 B10 (scFv, V domains shown) VH: QVQLVESGGGLVQPGGSLRLSCAASGFIFDDYAMFWVRQVPGKGLEWVAGINWNGNGIGYGDSVRGRFIISRDNARNSLDLQMNSLRAEDTAVYYCARPSLYGGNSEFDLWGQGTLVTVSS VL: SQLVLTQPPSVSGAPGQTVTISCTGPTIGAGYDVHWYQQLPGAAPKLLIYGNLNRPSGVPDRFSGSKSGTSASLAITDLQAEDEADYYCHTYDSSLSGSWVFGGGTKLTVL", "assay-value": 18.6}
{"binder": "모노 파아지 클론 F2 (scFv, V domains shown) VH: QVQLVESGAEVKKPGASVKVSCKASGYTFTNYYMHWVRQAPGQGLEWMGIINPSGGNTGYAQKFQGRVTMTRDMSTSTAYMELSSLRSEDTAVYYCARGLPWGENGLDVWGQGTTVTVSS VL: SQLVLTQPSSVSGAPGQTVTISCTGSSSNIGAGYDVHWYQQLPGTAPKVLIYGDSDRPSGVPDRFSGSKSATSASLAITGLQAEDEADYYCQSYDSSLSAYVFGTGTKVTVL", "assay-value": 9.96}
{"binder": "모노 파아지 클론 A7 (scFv, V domains shown) VH: QMQLVESGGGLVQPGTSLRLSCAASGFKFEDYAMHWVRQAPGKGLEWVSGVSWNSGTIAYVDSVKGRFTISRDNAKNSLYLQMNSLRAEDTAVYYCARDFTYFYESSGYYAFDLWGQGTMVTVSS VL: SQLVLTQPPSVSGAPGQRVTISCTGTNSNIGAGYDVHWYQQVPGTTPKLLIYGNTNRPSGVPDRFSGSKSGTSASLAITGLQAEDGGDYYCQSFDSSLTGSVFGTGTKVTVL", "assay-value": 31.1}

Consider the additional binder presented here.
# Ratio of 모노 파아지 클론 D2 (scFv, V domains shown) VH: QVQLVESGAEVKKPGSSVKVSCKGSGDTFPNYAINWVRQAPGQGPEWMGRIIPMLGTSDYAEKFQGRVTITADKSTNTAYMGLNSLRSEDTAVYYCVKGPRYYGTDSYYLEKWGQGTMVTVSS VL: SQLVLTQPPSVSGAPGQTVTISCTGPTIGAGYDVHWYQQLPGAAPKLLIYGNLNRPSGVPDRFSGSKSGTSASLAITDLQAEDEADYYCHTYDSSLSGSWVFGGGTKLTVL = 7.71
